target: Luciferin 4-monooxygenase (Photinus pyralis); test: qHTS assay to identify small molecule inhibitors of firefly luciferase (AID 1224835); note: nearly all actives have a fitted effect of over 25% in size; settings: purified P. pyralis luciferase, luminescence inhibition; series mostly up to 115 µM
Inconclusive results are not listed. The source made the active and inactive calls. Calls come from the whole dose curve; as a rule, active = well fitted inhibition curve with a large enough effect in the repeat runs; inconclusive = weak or mixed curves; inactive = flat fitted curve, though single readings scatter.
Possible outcomes: y = active, n = inactive

| Compound | Discrete label |
| --- | --- |
| CCCCCCCC(C)=O | n |
| CCCCC(CC)COC(=O)c1ccc(O)cc1 (stereo not drawn) | n |
| CC(C)(C)c1n[nH]c(=O)n(N)c1=O | n |
| CCO[Si](CCCSSSSCCC[Si](OCC)(OCC)OCC)(OCC)OCC | n |
| CCCSS/C(CCO)=C(\C)N(C=O)Cc1cnc(C)nc1N | n |
| COc1ccccc1C=O | n |
| COc1cccc(O)c1 | n |
| CCCCCCCCC(C)=O | n |
| COc1ccc(-n2nc(CCC(=O)N(C)O)cc2-c2ccc(Cl)cc2)cc1 | n |
| CC=O | n |
| COc1cccc(CCc2ccccc2OCC(CN(C)C)OC(=O)CCC(=O)O)c1 (stereo not drawn) | n |
| CN(Cc1cc(Br)cc(Br)c1N)C1CCCCC1 | n |
| CCC(C)c1cc([N+](=O)[O-])cc([N+](=O)[O-])c1OC(=O)OC(C)C (stereo not drawn) | n |
| Cc1ccc(O)cn1 | n |
| COC(=O)NCCC[Si](OC)(OC)OC | n |
| [O]=[Zr] | y |
| CCCCOCC | n |
| CC(C)(C)c1cc(/C=C2\SC(=N)NC2=O)cc(C(C)(C)C)c1O | n |
| Cc1cccc(C)c1NC(=O)CN1CCN(CCCC(c2ccc(F)cc2)c2ccc(F)cc2)CC1 | n |
| CCc1cccc(CC)c1NC(=O)C(=O)O | n |
| NC(=O)c1nc(-c2cccc(-c3cc(F)ccc3OCC(F)(F)C(F)(F)F)c2)n[nH]1 | n |
| C=C(C)C(=O)OCCC[Si](Cl)(Cl)Cl | n |
| O=C1NC2CCCCN2C12CCN(CCCN1c3ccccc3CCc3ccc(Cl)cc31)CC2 (stereo not drawn) | n |
| COc1cc(C=C2CCC/C(=C\c3ccc(O)c(OC)c3)C2=O)ccc1O | y |
| O=C1C=CC(=O)N1c1ccccc1 | y |
| C[C@@H]1CC[C@H]2C(C)(C)[C@H]3C[C@@]12CC[C@@]3(C)O | n |
| CCOC(=O)CC(C)O (stereo not drawn) | n |
| CCc1ccc(C)nc1 | n |
| CSc1ccc2c(c1)N(CCC1CCCCN1C)c1ccccc1S2 (stereo not drawn) | n |
| C=CC(=O)OCCC#N | n |
| CCCCCCCC/C=C/CCCOC(C)=O | n |
| S=P(N1CC1)(N1CC1)N1CC1 | n |
| CCCCCCCCCCc1ccccc1 | n |
| Cc1cc(Nc2ccc(O)cc2)ccc1N | y |
| C[n+]1c2cc(N)ccc2cc2ccc(N)cc21 (tested in a mixture with another compound) | n |
| Cc1ccc2ccc3cccc4ccc1c2c34 | y |
| C/C=C/CO | n |
| CCCC(C)CCC(C)=O (stereo not drawn) | n |
| CCc1cccc(CC)c1N(COC)C(=O)CS(=O)(=O)O | n |
| Clc1ccc(C(Cn2ccnc2)OCc2c(Cl)cccc2Cl)c(Cl)c1 (stereo not drawn) | n |
| C[Si](C)O[Si](C)C | n |
| CC(C)N=C(N)/N=C(\N)Nc1ccc(Cl)cc1 | n |
| CC(=O)C=O | n |
| NC(=O)c1ccccc1N | n |
| CCC(=O)OCCc1ccccc1 | n |
| Cc1cc(C)c(C=O)c(C)c1 | n |
| CC(NCCC(c1ccccc1)c1ccccc1)c1ccccc1 (stereo not drawn) | n |
| O=CC1CC1 | n |
| CCCCCCCC(=O)OCC | n |
| CC1=CP(=O)(c2ccccc2)CC1 (stereo not drawn) | n |
| COc1nccnc1CC(C)C | n |
| c1cc[nH]c1 | n |
| CCC(C)C(=O)OC (stereo not drawn) | n |
| O=C1c2c(O)ccc([N+](=O)[O-])c2C(=O)c2c([N+](=O)[O-])ccc(O)c21 | y |
| C#CC(O)CCC (stereo not drawn) | n |
| CC(C)=CCCC(C)CCOC(=O)C(C)C (stereo not drawn) | n |
| CC1CCCCN1CCCOC(=O)c1ccc(OC2CCCCC2)cc1 (stereo not drawn) | n |
| O=C(Nc1ccc(Cl)c(Cl)c1)c1cc(Cl)cc(Cl)c1O | y |
